Test system: T47D cells
Test: Cell viability (cell kill) assay
Assay type: cell-based
Details: T47D; Table 19; read-out: IC50
metric.name: IC50 (nM)

• H1H6765P-mc-VC-PAB-MMAE (conjugate) VH: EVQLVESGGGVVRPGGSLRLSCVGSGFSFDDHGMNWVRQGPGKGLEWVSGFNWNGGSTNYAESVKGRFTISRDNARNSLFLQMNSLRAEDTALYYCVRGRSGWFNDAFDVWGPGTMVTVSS VL: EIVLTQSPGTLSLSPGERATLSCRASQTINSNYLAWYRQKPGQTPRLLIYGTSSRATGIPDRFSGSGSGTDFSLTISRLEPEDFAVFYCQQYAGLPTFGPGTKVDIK = 1
• H1H6953N-mc-VC-PAB-MMD (conjugate) VH: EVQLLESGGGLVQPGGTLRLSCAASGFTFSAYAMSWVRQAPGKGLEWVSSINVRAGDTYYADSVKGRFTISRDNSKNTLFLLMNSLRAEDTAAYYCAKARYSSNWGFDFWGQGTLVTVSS VL: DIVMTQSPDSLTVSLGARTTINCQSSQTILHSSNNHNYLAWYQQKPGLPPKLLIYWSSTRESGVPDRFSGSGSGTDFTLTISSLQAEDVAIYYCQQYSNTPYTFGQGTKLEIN = 1
• H1H6782P-mc-VC-PAB-MeNHC3-May (conjugate) VH: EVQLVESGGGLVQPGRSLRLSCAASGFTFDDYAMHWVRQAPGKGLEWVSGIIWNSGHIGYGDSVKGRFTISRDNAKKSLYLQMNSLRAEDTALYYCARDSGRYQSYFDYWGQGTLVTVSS VL: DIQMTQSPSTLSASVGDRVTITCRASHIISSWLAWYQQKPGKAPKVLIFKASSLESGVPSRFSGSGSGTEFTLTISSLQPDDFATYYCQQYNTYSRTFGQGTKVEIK = 2
• H1H6782P-mc-VC-PAB-MMD (conjugate) VH: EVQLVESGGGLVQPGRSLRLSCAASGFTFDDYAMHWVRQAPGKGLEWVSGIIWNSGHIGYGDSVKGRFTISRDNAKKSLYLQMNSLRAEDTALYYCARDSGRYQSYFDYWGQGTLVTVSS VL: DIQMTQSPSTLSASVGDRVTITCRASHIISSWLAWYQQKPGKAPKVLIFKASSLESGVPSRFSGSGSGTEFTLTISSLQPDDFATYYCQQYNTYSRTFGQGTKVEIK = 2
• H1H6958N2-SPDB-DM4 (conjugate) VH: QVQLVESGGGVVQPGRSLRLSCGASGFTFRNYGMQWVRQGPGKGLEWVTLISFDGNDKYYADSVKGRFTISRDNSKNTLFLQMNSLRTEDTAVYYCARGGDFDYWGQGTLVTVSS VL: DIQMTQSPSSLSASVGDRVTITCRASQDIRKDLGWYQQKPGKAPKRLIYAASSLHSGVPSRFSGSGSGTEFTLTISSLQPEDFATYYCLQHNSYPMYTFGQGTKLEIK = 1
• H1H6958N2-DM1: anti-PRLR antibody H1H6958N2 conjugated to DM1 through an SMCC linker (conjugate) VH: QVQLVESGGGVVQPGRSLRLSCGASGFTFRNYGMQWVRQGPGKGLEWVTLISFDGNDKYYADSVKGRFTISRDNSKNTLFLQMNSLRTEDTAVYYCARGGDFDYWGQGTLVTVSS VL: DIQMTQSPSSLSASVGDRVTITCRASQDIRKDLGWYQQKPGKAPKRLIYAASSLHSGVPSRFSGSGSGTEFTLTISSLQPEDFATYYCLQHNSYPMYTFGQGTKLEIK = 2
